The reported measurements were obtained from ChEMBL document CHEMBL1156226.

Biological target: RAC-alpha serine/threonine-protein kinase (Homo sapiens)
Sequence (P31749 whole entry): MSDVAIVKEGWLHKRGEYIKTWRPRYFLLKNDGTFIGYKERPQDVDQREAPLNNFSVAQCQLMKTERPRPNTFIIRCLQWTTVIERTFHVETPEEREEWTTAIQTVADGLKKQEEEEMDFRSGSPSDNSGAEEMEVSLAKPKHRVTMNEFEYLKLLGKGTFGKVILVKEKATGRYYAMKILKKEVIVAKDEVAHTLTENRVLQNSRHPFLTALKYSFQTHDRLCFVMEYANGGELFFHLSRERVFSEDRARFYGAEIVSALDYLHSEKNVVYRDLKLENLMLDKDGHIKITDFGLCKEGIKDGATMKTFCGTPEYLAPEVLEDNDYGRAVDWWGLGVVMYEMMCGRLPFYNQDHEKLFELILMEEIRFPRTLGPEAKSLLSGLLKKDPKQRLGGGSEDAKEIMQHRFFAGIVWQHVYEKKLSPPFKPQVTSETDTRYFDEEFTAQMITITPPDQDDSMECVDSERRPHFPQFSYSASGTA
Assay: Inhibition of PKB at 100 uM by radioactive kinase assay relative to control
Peptide text beside a SMILES is read from it.
inhibition listing for selected compounds.
API: value field is a number in %; no unit string.

In the examples that follow, each entry is paired with its recorded inhibition.
CCC[C@H](NC(=O)[C@H](CCCNC(=N)N)NC(=O)[C@@H]1CCCN1C(=O)[C@@H](N)CCCNC(=N)N)C(=O)N[C@@H](Cc1ccc(O)cc1)C(=O)N(C)[C@@H](CN)C(=O)N[C@@H](CCC(C)C)C(N)=O (HELM PEPTIDE1{R.P.R.[Nva].Y.[CN([C@@H](CN)C(=O)[*:2])[*:1]].[CC(C)CC[C@H](N[*:1])C(=O)[*:2]].[am]}$$$$V2.0) = 75
CCC[C@H](NC(=O)[C@H](CCCNC(=N)N)NC(=O)[C@@H]1CCCN1C(=O)[C@H](CCCNC(=N)N)NC(C)=O)C(=O)N[C@@H](Cc1ccc(O)cc1)C(=O)N(C)[C@@H](CN)C(=O)N[C@@H](CCC(C)C)C(N)=O (HELM PEPTIDE1{[ac].R.P.R.[Nva].Y.[CN([C@@H](CN)C(=O)[*:2])[*:1]].[CC(C)CC[C@H](N[*:1])C(=O)[*:2]].[am]}$$$$V2.0) = 33

Pending compound:
Data request: Assign inhibition to the following record: CCC[C@H](NC(=O)[C@H](CCCNC(=N)N)NC(=O)[C@@H]1CCCN1C(=O)[C@H](CCCNC(=N)N)NC(C)=O)C(=O)N[C@@H](Cc1ccc(O)cc1)C(=O)N[C@@H](CN)C(=O)N(CC(N)=O)CC(C)CC (stereo partly drawn) (HELM PEPTIDE1{[ac].R.P.R.[Nva].Y.[NC[C@H](N[*:1])C(=O)[*:2]].[CCC(C)CN(CC(=O)[*:2])[*:1]].[am]}$$$$V2.0)
Data returned: 1

---

Target: RAC-alpha serine/threonine-protein kinase (Homo sapiens)
Assay: Inhibition of PKB at 100 uM by radioactive kinase assay relative to control
Square brackets hold non-standard residues; d marks the D form. Peptide text beside a SMILES is read from it. Gly(N-4-hydroxybenzyl) = O=C(O)CNCc1ccc(O)cc1; Gly(N-(CH2)3-guanidino) = N=C(N)NCCCNCC(=O)O; hLeu = CC(C)CC[C@H](N)C(=O)O; Nva = CCC[C@H](N)C(=O)O; Dap = NC[C@H](N)C(=O)O
# inhibition >= 80% gives met, anything below gives not met

Data request: # check: inhibition of CCC[C@H](NC(=O)[C@H](CCCNC(=N)N)NC(=O)[C@@H]1CCCN1C(=O)[C@@H](N)CCCNC(=N)N)C(=O)N(CC(=O)N[C@@H](CN)C(=O)N[C@@H](CCC(C)C)C(N)=O)Cc1ccc(O)cc1 (H-RPR[Nva][Gly(N-4-hydroxybenzyl)][Dap][hLeu]-NH2) is greater than or equal to 80%
Data returned: met

Data request: # check: inhibition of CCC[C@H](NC(=O)[C@H](CCCNC(=N)N)NC(=O)[C@H](C)N(C)C(=O)[C@@H](N)CCCNC(=N)N)C(=O)N[C@@H](Cc1ccc(O)cc1)C(=O)N[C@@H](CN)C(=O)N[C@@H](CCC(C)C)C(N)=O (HELM PEPTIDE1{R.[meA].R.[Nva].Y.[NC[C@H](N[*:1])C(=O)[*:2]].[CC(C)CC[C@H](N[*:1])C(=O)[*:2]].[am]}$$$$V2.0) is greater than or equal to 80%
Data returned: met

Data request: # check: inhibition of CCC[C@H](NC(=O)[C@H](CCCNC(=N)N)NC(=O)[C@@H]1CCCN1C(=O)[C@@H](N)CCCNC(=N)N)C(=O)N[C@@H](Cc1ccc(O)cc1)C(=O)N[C@@H](CN)C(=O)N[C@@H](CCC(C)C)C(N)=O (HELM PEPTIDE1{R.P.R.[Nva].Y.[NC[C@H](N[*:1])C(=O)[*:2]].[CC(C)CC[C@H](N[*:1])C(=O)[*:2]].[am]}$$$$V2.0) is greater than or equal to 80%
Data returned: met

Data request: # check: inhibition of CCC[C@H](NC(=O)[C@H](CCCNC(=N)N)NC(=O)[C@@H]1CCCN1C(=O)[C@H](CCCNC(=N)N)NC(C)=O)C(=O)N[C@@H](Cc1ccc(O)cc1)C(=O)N[C@@H](CN)C(=O)N(C)[C@@H](CCC(C)C)C(N)=O (HELM PEPTIDE1{[ac].R.P.R.[Nva].Y.[NC[C@H](N[*:1])C(=O)[*:2]].[CC(C)CC[C@@H](C(=O)[*:2])N(C)[*:1]].[am]}$$$$V2.0) is greater than or equal to 80%
Data returned: not met

Data request: # check: inhibition of CCC[C@H](NC(=O)CN(CCCNC(=N)N)C(=O)[C@@H]1CCCN1C(=O)[C@@H](N)CCCNC(=N)N)C(=O)N[C@@H](Cc1ccc(O)cc1)C(=O)N[C@@H](CN)C(=O)N[C@@H](CCC(C)C)C(N)=O (H-RP[Gly(N-(CH2)3-guanidino)][Nva]Y[Dap][hLeu]-NH2) is greater than or equal to 80%
Data returned: not met
